Tgt: Serine/threonine-protein kinase TBK1 (Homo sapiens, UniProt Q9UHD2)
Sequence (Q9UHD2 whole entry): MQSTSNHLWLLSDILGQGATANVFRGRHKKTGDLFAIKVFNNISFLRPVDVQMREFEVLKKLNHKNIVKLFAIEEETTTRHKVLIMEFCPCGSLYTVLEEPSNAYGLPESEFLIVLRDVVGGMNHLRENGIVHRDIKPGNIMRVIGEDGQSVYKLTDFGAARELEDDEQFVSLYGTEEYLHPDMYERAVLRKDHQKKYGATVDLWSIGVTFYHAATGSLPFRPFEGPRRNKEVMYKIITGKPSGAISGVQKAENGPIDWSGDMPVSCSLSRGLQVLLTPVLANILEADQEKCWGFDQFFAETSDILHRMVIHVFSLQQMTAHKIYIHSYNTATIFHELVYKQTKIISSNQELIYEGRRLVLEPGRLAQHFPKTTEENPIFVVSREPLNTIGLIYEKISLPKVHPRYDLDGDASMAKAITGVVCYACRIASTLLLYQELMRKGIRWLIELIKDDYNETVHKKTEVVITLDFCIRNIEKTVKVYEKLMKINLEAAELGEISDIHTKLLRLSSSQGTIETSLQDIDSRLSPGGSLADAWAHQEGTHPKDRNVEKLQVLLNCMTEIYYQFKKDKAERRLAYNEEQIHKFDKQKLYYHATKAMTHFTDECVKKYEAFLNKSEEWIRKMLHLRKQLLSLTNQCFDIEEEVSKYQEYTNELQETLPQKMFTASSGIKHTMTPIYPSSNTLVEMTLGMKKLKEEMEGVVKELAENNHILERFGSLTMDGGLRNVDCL
Experiment: Inhibition of TBK1 (unknown origin) in presence of ATP by HTRF assay
Reported Endpoint: IC50

May I ask what IC50 has been recorded for C[C@H]1CC(=O)Nc2cc(C(=O)NCCC3CC3)ccc2N1C(=O)N1CC2CC2C1 (stereo partly specified) ?
> 20 µM

---

Tgt: Histone-lysine N-methyltransferase SMYD3 (Homo sapiens)
Sequence (Q9H7B4 whole entry): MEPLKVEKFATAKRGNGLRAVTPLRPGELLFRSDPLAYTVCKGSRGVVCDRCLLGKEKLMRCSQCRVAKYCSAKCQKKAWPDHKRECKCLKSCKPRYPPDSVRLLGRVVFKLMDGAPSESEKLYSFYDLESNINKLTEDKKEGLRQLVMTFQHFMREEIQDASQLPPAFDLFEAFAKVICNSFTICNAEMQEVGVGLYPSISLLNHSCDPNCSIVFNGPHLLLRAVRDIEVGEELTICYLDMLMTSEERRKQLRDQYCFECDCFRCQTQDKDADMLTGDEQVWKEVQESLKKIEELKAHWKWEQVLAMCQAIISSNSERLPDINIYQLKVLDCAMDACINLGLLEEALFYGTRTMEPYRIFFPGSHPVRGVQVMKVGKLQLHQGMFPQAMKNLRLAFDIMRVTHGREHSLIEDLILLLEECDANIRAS
Experiment: Binding affinity to recombinant human SMYD3 expressed in Escherichia coli assessed as catalytic inhibition using DYDNPIFEKFGKGGTYPRRYHVSYHGK-Biotin as substrate by scintillation proximity assay
Reported Endpoint: pIC50
When answering, recall that pIC50 equals minus log10 of the concentration in mol/L, and write that number alone.

Some solved cases for reference:
{"columns": ["Compound", "Tgt", "Endpoint Result"],
 "data": [
  ["C[C@H]1CC(=O)Nc2cc(C(=O)NCCC3CC3)ccc2N1C(=O)N(C)C1CCN(CC(F)(F)F)CC1", "Histone-lysine N-methyltransferase SMYD3 (Homo sapiens)", 5.25],
  ["CCN1CCC(N(C)C(=O)N2c3ccc(C(=O)NCCC4CC4)cc3NC(=O)C[C@@H]2C)CC1", "Histone-lysine N-methyltransferase SMYD3 (Homo sapiens)", 6.75],
  ["C[C@H]1CC(=O)Nc2cc(C(=O)NCCC3CC3)ccc2N1C(=O)N1CCN(CC(F)(F)F)CC1", "Histone-lysine N-methyltransferase SMYD3 (Homo sapiens)", 5.82],
  ["CCCCCNC(=O)c1ccc2c(c1)NC(=O)CC(C)N2C(=O)c1ccccc1F (stereo not drawn)", "Histone-lysine N-methyltransferase SMYD3 (Homo sapiens)", 4.62]
]}

May I ask what pIC50 has been recorded for `C[C@H]1CC(=O)Nc2cc(C(=O)NCCC3CC3)ccc2N1C(=O)N1CCN(CCO)CC1` ?
5.97

May I ask what pIC50 has been recorded for `C[C@H]1CC(=O)Nc2cc(C(=O)NCCC3CC3)ccc2N1C(=O)N1CCNCC1` ?
6.60

May I ask what pIC50 has been recorded for CCCCCNC(=O)c1ccc2c(c1)NC(=O)CC(C)N2C(=O)C1CCCC1 (stereo not drawn) ?
4.57

---

Experiment: Cytotoxicity against human MCF-10A cells assessed as inhibition of cell viability measured for 3 to 5 days by alamar blue staining based assay
Type: toxicity
pIC50: −log10 of the molar value.
Reported Endpoint: pIC50

May I ask what pIC50 has been recorded for C[C@H]1CC(=O)Nc2cc(C(=O)NCCC3CC3)ccc2N1C(=O)N1CC2CC2C1 (stereo partly specified) ?
< 5.00
